- assayInfo: yeast display, Sf9 membrane polyspecificity reagent, FACS + sequencing; frameworks hold sequencing errors
observable: polyreactivity (PSR sort gate)

QVQLVESGGGLVQAGGSLRLSCAASGYTFSHYAMGWYRQAPGTERELVAGITWSGGSTYYADSVKGRFTISRDNAKNTVYLQMNSLKPEDTSVYYCAAKYYWYYSYSGIPLFDYWGQGTQVTVSS; low polyreactivity
QVQLVESGGGLVQAGGSLRLSCAASGSTFLVNGMGWYRQAPGKERELVAAISSGDGSTYYADSVKGRFTISRDNAKNTVYLQMNSLKPEDTAVYYCAVDCWWTGYDYWGQGTQVTVSS; low polyreactivity

###

- assayInfo: yeast display, Sf9 membrane polyspecificity reagent, FACS + sequencing; frameworks hold sequencing errors
observable: polyreactivity (PSR sort gate)

The following sequences have reported results that may help.
QVQLVESGGGLVQAGGSLRLSCAASGRTFSGNARGWYRQAPGKERELVATITRRGGSTYYADSVKGRFTISRDNAKNTVYLQMNSLKPEDTAVYYCAARRVVNGGQGYESWGQGTQVTVSS; high polyreactivity
QVQLVESGGGLVQAGGSLRLSCAPSGSTFSHNAMGWYRQAPGKEREFVAAISWSGGGTYADSVKGRFTISRDYAKNTVYLQMNSLKPEDTAVYYCNKVSYRSSSSSWFDYWGQGTQVTVSS; low polyreactivity
QVQLVESGGGLVQAGGSLRLSCAASGRTFPGYAMGWYRQAPGKERELVASITSRGGITYYADSVKGRFTISRDNAKNTVYLQMNSLKPEDTAVYYCATDFAVTKMEYWGQGTQVTVSS; low polyreactivity
QVQLVESGGGLVQAGGILRLSCAASGFILWYYTMGWSRQAPGKERELVAAISRGGTTYYADSVKGRFTISRDTAKNTVYLQMYSLKPEDTAVYYCNAPYNTHGIVLYDYWGQGTQVTVSS; low polyreactivity

Consider the record given below.
Req: Report polyreactivity (PSR sort gate) for QVQLVESGGGLVQAGGSLRLSCAASGRTFNPYAMGWYRQAPGKERELVAVISSIGGSTYADSVKGRFTISRDNAKNTVYLQMNSLKPEDTAVYYCNRATFGQWGGDYWGQGTQVTVSS
Resp: high polyreactivity

###

- assayInfo: yeast display, Sf9 membrane polyspecificity reagent, FACS + sequencing; frameworks hold sequencing errors
observable: polyreactivity (PSR sort gate)

QVQLVESGGGLVQAGGSLRLSCAASGYTFGYYAMGWYRQAPGKERELVAAINYSGGRTYYADSVKGRFTISRDNAKNTVYLQMNSLKPEDTAVYYCNAKYGGWSKYWFPRDMDYWGQGTQVTVSS; low polyreactivity
QVQLVESGGGLVQAGGSLRLSCAASASTFWRYAMGWYRQAPGKERELVAAISWNGGSTYYADSVKGRFTISRDNAKNTVYLQMNSLKPEDTAVYYCARGYSWSVGYPRVQDMDYWGQGTQVTVSS; high polyreactivity
QVQLVESGGGLVQAGGSLRLSCAASGSIFDSYAMGWYRQAPGKERELVAVISESGGTTYYADSVKGRFTISRDNAKNTVYLQMNSLKPEDTAVYYCAAVWYYQFGVWGYYWGQGTQVTVSS; low polyreactivity
QVQLVESGGGLVQAGGSLRLSCAASGSTFDFYAMGWYRQAPGKERELVAAITYSGGSTYYADSVKGRFTISRDNAKNTVYLQMNSLKPEDTAVYYCAAARVWQYSDFFLYYYWGQGTQVTVSS; low polyreactivity
QVQRVESGGGLVQAGGRLRLSCAASGFTFFHYAMGRYRQAPGKERELVAAISWSGGTTYYADSVKGRFTISRDNAKNTVYLQMNCLKPEDTAVYYFAADGGLGWRWLPLGYRYGFDYWGQGTQVTVSS; low polyreactivity
QVQLVESGGGLVQAGGSLRLSCAASGITFQDYAMGWYRQAPGKERELVAAISKSGGSTYYADSVKGRFTISRDNAKNTVYLQMNSLKPEDTAVYYCAAYAQKRYYWGQGTQVTVSS; high polyreactivity
QVQLVESGGGLVQEGGSLRLSCAASGSIFNTYAMGRYRQAPGKEREMVAGITKTGSRTYYADSVKGRFTISRDNAKNTVYLQIHILKPEDTAVYYCNARIWPRSYRYDYWGQGTQVTVSS; high polyreactivity
QVQLVESGGGLVQAGGSLRLSCAASGSTFLPNAMGWYRQAPGTERELVATITFDGGSTYYADSVKGRFTISRDNAKNTVYLQMNSLKPEDTAVYYCNTVELYWRGYDYWGQGTQVTVSS; high polyreactivity

Req: Supply reported polyreactivity (PSR sort gate) belonging to this sequence: QVQLVESGGGLVQPGGSLRLSCAASGFTFYLYALGWYRQAPVKERELVASISSGGRTYYADSVKGRFTISRDNAKNTVYVQMNRLKPADTAVYYCAARRPAWYWSAYRYYSEMDYWGQGTQVTVSS
Resp: high polyreactivity

Req: Annotate the sequence QVQLVESGGGLVQAGGSLRLSCAASGSTFSQYAMGWYRQAPGKETELVAVITRSGGSTYYADSVKGRFTISRDNAKNTVYLQMNSLKPEDTAVYYCAARSGRYKGDYWGQGTQVTVSS with its measured polyreactivity (PSR sort gate).
Resp: low polyreactivity

Req: Provide polyreactivity (PSR sort gate) value for the following sequence: QVQLVESGGGLVQAGGSLRLSCAASGITFWRNAMGWYRQAPGKESELVAAISWSVGRTYYADSVKGRFTISRDNAKNTVYLQMNSLKPEDTAFYYCIARWRSGPRAYDYWGQGTQVSVSS
Resp: high polyreactivity
